// reported hepatocyte CLint at 1 µM for each item listed
assay info: Intrinsic clearance in human hepatocytes assessed per million cells at 1 uM measured up to 120 mins in presence of NADPH by LC-MS/MS analysis
Assay type: ADME, cell-based, Hepatocyte
condition info: read-out: CLH

Known hepatocyte CLint at 1 µM results, listed for orientation:
CNC(=O)C[C@H]1COc2cc(F)ccc2N1C(=O)c1ccc2c(c1)NC(=O)CO2 [BALCINRENONE] :: < 1 µL/min/1e6 cells
CNC(=O)C[C@H]1COc2ccc(Cl)cc2N1C(=O)c1ccc2c(c1)NC(=O)CO2 :: 4.6 µL/min/1e6 cells
NC(=O)C[C@H]1COc2cc(F)ccc2N1C(=O)c1ccc2c(c1)NC(=O)CO2 :: < 1 µL/min/1e6 cells
CNC(=O)C[C@H]1COc2cc(Br)ccc2N1C(=O)c1ccc2c(c1)NC(=O)CO2 :: 5 µL/min/1e6 cells
CNC(=O)C[C@H]1COc2cc(C(F)(F)F)ccc2N1C(=O)c1ccc2c(c1)NC(=O)CO2 :: 3 µL/min/1e6 cells

Q) Record request: hepatocyte CLint at 1 µM value, item O=C1COc2ccc(C(=O)N3c4cc(CC5CCCCC5)c(F)cc4OC[C@@H]3CCO)cc2N1
A) 26 µL/min/1e6 cells

Q) Fill blank: measured hepatocyte CLint at 1 µM of the molecule CNC(=O)C[C@H]1COc2cc(C#N)ccc2N1C(=O)c1ccc2c(c1)NC(=O)CO2 is ____.
A) < 1 µL/min/1e6 cells

Q) What does the data say about its hepatocyte CLint at 1 µM? Entry: CNC(=O)C[C@@H]1COc2cc(F)ccc2N1C(=O)c1ccc2c(c1)NC(=O)CO2
A) < 1 µL/min/1e6 cells

Q) hepatocyte CLint at 1 µM lookup needed for CNC(=O)C[C@H]1COc2ccccc2N1C(=O)c1ccc2c(c1)NC(=O)CO2 , thanks.
A) < 1 µL/min/1e6 cells

Q) # input molecule: CNC(=O)C[C@H]1COc2cc(F)c(CC(C)C)cc2N1C(=O)c1ccc2c(c1)NC(=O)CO2 ; wanted: its hepatocyte CLint at 1 µM
A) 13 µL/min/1e6 cells

Q) Recorded hepatocyte CLint at 1 µM for CNC(=O)C[C@H]1COc2cc(Cl)cc(C)c2N1C(=O)c1ccc2c(c1)NC(=O)CO2 , please?
A) 2.5 µL/min/1e6 cells

Q) Suppose we examine the molecule CNC(=O)C[C@H]1COc2cc(Cl)ccc2N1C(=O)c1ccc2c(c1)NC(=O)CO2 ; what hepatocyte CLint at 1 µM value has been reported?
A) 3 µL/min/1e6 cells

Q) Need hepatocyte CLint at 1 µM of NC(=O)C[C@H]1CNc2cc(Cl)ccc2N1C(=O)c1ccc2c(c1)NC(=O)CO2 , thanks.
A) < 1 µL/min/1e6 cells

Q) Which measured hepatocyte CLint at 1 µM value corresponds to CNC(=O)C[C@H]1COc2cc(F)ccc2N1C(=O)c1ccc2c(c1)NC(=O)OC2 ?
A) < 1 µL/min/1e6 cells

Q) Requested read-out: hepatocyte CLint at 1 µM. Entry: Cc1ccc2c(c1)OC[C@](C)(CS(C)(=O)=O)N2C(=O)c1ccc2c(c1)NC(=O)CO2
A) 60 µL/min/1e6 cells

Q) Please report the recorded hepatocyte CLint at 1 µM for NC(=O)C[C@H]1COc2cc(Cl)ccc2N1C(=O)c1ccc2c(c1)NC(=O)CO2 .
A) 1.5 µL/min/1e6 cells

Q) Sample CCNC(=O)CC1COc2cc(F)ccc2N1C(=O)c1ccc2c(c1)NC(=O)CO2 (racemic) — what was its hepatocyte CLint at 1 µM?
A) 3 µL/min/1e6 cells

Q) What does the data say about its hepatocyte CLint at 1 µM? Entry: NC(=O)C[C@H]1COc2cc(F)c(C3CC3)cc2N1C(=O)c1ccc2c(c1)NC(=O)CO2
A) < 2 µL/min/1e6 cells

Q) Give the measured hepatocyte CLint at 1 µM of CC(C)Cc1cc2c(cc1F)OC[C@H](CS(N)(=O)=O)N2C(=O)c1ccc2c(c1)NC(=O)CO2 .
A) 18 µL/min/1e6 cells
